These entries and their values trace back to patent US20210253718A1.

Molecular target: T1, FZD4 cysteine-rich domain (CRD), MYC-tagged and GPI-anchored on CHO cells (human, UniProt Q9ULV1 42-167, GPI anchor)
T1 construct: also called FZD4 CRD; CHO-myc-FZDGPI; not shown: MYC tag and GPI anchor signal
T1 sequence: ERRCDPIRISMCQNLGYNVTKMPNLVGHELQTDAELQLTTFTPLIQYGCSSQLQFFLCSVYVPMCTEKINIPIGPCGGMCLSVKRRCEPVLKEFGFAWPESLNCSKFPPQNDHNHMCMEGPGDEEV
Assay: flow cytometry, CHO-CRD cells;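 further: flow cytometry of Fab binding to CHO cells overexpressing a Frizzled CRD, with binding defined as median fluorescence over twice that of CHO cells lacking any Frizzled CRD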
hey, just use YES if measured median fluorescence is less than 6, otherwise NO

INSERT INTO measurements (binder, class_assignment) VALUES
  ('Fab-2911 (Fab, V domains shown, Fab; also called Fv-2911) VH: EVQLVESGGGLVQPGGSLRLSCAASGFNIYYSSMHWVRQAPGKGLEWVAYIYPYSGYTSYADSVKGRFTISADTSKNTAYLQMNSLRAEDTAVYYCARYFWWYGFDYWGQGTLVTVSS VL: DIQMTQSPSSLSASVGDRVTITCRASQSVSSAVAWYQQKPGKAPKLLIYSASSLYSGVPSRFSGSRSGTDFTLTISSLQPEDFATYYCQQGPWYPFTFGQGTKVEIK', 'NO'),
  ('Fab-2918 (Fab, V domains shown, Fab; also called Fv-2918) VH: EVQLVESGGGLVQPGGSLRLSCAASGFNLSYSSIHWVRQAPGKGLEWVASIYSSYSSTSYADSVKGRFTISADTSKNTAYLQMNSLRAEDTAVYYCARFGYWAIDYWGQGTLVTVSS VL: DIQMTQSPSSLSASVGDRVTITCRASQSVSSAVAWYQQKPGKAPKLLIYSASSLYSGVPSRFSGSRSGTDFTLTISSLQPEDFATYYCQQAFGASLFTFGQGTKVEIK', 'YES'),
  ('Fab-2932 (Fab, V domains shown, Fab; also called Fv-2932) VH: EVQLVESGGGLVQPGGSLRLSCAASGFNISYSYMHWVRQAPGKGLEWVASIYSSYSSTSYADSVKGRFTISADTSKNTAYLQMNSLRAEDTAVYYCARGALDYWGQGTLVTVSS VL: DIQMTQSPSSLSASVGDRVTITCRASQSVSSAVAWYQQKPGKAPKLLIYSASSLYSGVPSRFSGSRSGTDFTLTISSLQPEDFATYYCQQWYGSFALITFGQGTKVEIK', 'YES'),
  ('Fab-2912 (Fab, V domains shown, Fab; also called Fv-2912) VH: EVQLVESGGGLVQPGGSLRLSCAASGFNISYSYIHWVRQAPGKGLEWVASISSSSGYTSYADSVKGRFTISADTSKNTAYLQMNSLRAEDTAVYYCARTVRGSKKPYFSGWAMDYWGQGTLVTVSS VL: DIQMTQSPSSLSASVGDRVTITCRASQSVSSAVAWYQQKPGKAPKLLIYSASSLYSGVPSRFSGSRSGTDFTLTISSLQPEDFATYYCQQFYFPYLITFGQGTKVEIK', 'NO');
